Provenance of the data: patent US12350273B2

ASSAY NOTES: 39-week monkey toxicity study: toxicokinetics in plasma
Assay type: in vivo, cynomolgus monkeys (Macaca fascicularis)
CONDITION DESCRIPTION: male, cynomolgus monkey, plasma; Day 267 (Week 39), 1.5 mg/kg/day oral; read-out: Cmax, male (mean)
EXPERIMENTAL ENDPOINT: Cmax (ng/mL)

INSERT INTO results (compound, experimental_endpoint, measured_number) VALUES
  ('Cc1cn2nc(-c3cc(=O)n4cc(N5CCNC6(CC6)C5)ccc4n3)cc(C)c2n1 [RO7034067]', 'Cmax', 414);

====

ASSAY NOTES: 39-week monkey toxicity study: retina effects (ERG, sdOCT, histopathology), NOAEL
CONDITION DESCRIPTION: cynomolgus monkey, plasma, oral
EXPERIMENTAL ENDPOINT: AUC(0-t) (ng·h/mL)

INSERT INTO assay_data (chemical_smiles, units, measured_number) VALUES
  ('Cc1cn2nc(-c3cc(=O)n4cc(N5CCNC6(CC6)C5)ccc4n3)cc(C)c2n1', 'ng·h/mL', 4260);

====

ASSAY NOTES: Study BP39055 Part 1: pharmacokinetics (AUC0-24h,ss) in SMA patients
Type: in vivo, human
CONDITION DESCRIPTION: human, in vivo; 2-11 yr, 0.05 mg/kg; read-out: estimated AUC0-24h,ss, median
EXPERIMENTAL ENDPOINT: AUC(0-t) (ng·h/mL)

INSERT INTO results (chemical_smiles, measured_number) VALUES
  ('Cc1cn2nc(-c3cc(=O)n4cc(N5CCNC6(CC6)C5)ccc4n3)cc(C)c2n1', 407);

====

ASSAY NOTES: 39-week monkey toxicity study: toxicokinetics in plasma
Format: in vivo, cynomolgus monkeys (Macaca fascicularis)
CONDITION DESCRIPTION: male, cynomolgus monkey, plasma; Day 267, 3 mg/kg/day oral; read-out: Cmax, male (mean)
EXPERIMENTAL ENDPOINT: Cmax

INSERT INTO assay_data (compound, experimental_endpoint, result) VALUES
  ('Cc1cn2nc(-c3cc(=O)n4cc(N5CCNC6(CC6)C5)ccc4n3)cc(C)c2n1 [RO7034067]', 'Cmax', '1000 ng/mL');
